Test system: Danio rerio larvae (5 dpf)
protocolText: difference in excitability vs DMSO (percentage points); higher = more excitable than DMSO
experimentalConditions: 10 µM; exposure time 6 h
Counter-ions that a name gives are not always drawn.
Provide the reported difference in excitability of each item.
Hey, just send me the number, nothing else.

Prompt line: Fill in: difference in excitability of N#Cc1ccc(Oc2ccc3c(c2)COB3O)cc1 is ___
Response line: -2.19

Prompt line: Moving on to CCOc1ccc2ccccc2c1C(=O)N[C@@H]1C(=O)N2[C@@H]1SC(C)(C)[C@@H]2C(=O)O [Nafcillin (sodium salt hydrate)]
Response line: 3.99

Prompt line: Moving on to Cc1ccc(Nc2nccc(N(C)c3ccc4c(C)n(C)nc4c3)n2)cc1S(N)(=O)=O
Response line: 3.47

Prompt line: Moving on to CCOC(=O)[C@H](CCc1ccccc1)N[C@H]1CCc2ccccc2N(CC(=O)O)C1=O [Benazepril (hydrochloride)]
Response line: 7.01

Prompt line: Moving on to O=C(O)c1cc(-c2ccc(F)cc2F)ccc1O
Response line: 1.22

Prompt line: Moving on to CO[C@@]1(NC(=O)C2SC(=C(C(N)=O)C(=O)O)S2)C(=O)N2C(C(=O)O)=C(CSc3nnnn3C)CS[C@@H]21 (stereo not given in full) [Cefotetan (sodium salt)]
Response line: -4.63

Prompt line: Moving on to CO/N=C1\C[C@]2(C[C@@H]3C[C@@H](C/C=C(\C)C[C@@H](C)/C=C/C=C4\CO[C@@H]5[C@H](O)C(C)=C[C@@H](C(=O)O3)[C@]45O)O2)O[C@H](/C(C)=C/C(C)C)[C@H]1C
Response line: 8.4

Prompt line: Moving on to CC(C)c1c(C(=O)Nc2ccccc2)c(-c2ccccc2)c(-c2ccc(F)cc2)n1CC[C@@H](O)C[C@@H](O)CC(=O)O [Atorvastatin (calcium salt hydrate)]
Response line: 2

Prompt line: Moving on to CC(C)C[C@H](NC(=O)CNC(=O)c1cc(Cl)ccc1Cl)B1OC(=O)C(CC(=O)O)(CC(=O)O)O1
Response line: -1.67

Prompt line: Moving on to CC[C@H](C)C(=O)O[C@H]1C[C@H](O)C=C2C=C[C@H](C)[C@H](CC[C@@H](O)C[C@@H](O)CC(=O)O)[C@H]21 [Pravastatin (sodium salt)]
Response line: 1.5

Prompt line: Moving on to CC(=O)O[C@H]1CC[C@@]2(C)C(=CC[C@@H]3[C@@H]2CC[C@]2(C)C(c4cccnc4)=CC[C@@H]32)C1 [Abiraterone Acetate]
Response line: 9.1

Prompt line: Moving on to Cc1cc(Nc2ncc(Cl)c(Nc3ccccc3S(=O)(=O)C(C)C)n2)c(OC(C)C)cc1C1CCNCC1
Response line: 23.6

Prompt line: Moving on to O=c1[nH]cnc2c1ncn2[C@H]1CC[C@@H](CO)O1
Response line: 1.69

Prompt line: Moving on to Cc1ncc(CO)c(CO)c1O
Response line: -7.67

Prompt line: Moving on to CN(C)CCC=C1c2ccccc2C=Cc2ccccc21 [Cyclobenzaprine (hydrochloride)]
Response line: 17.5
